Measured T/C accompanies every entry in the list below.
Test system: CD2F1 mice, L1210 leukemia ip, survival T/C
EXPERIMENT NOTES: NCI In Vivo Anticancer Drug Screen. Data for tumor model L1210 Leukemia (intraperitoneal) in CD2F1 (CDF1) mice
RUN CONDITIONS: endpoint: mean survival time; dose: 100.0 mg/kg/injection; schedule: Q04DX003 (ip); vehicle: saline with Tween-80; higher = longer survival
Inconclusive results and toxic doses are left out.

Worked examples, 6 compounds total:
Q: Data request, read-out T/C, for O=C(NCc1ccccc1)C1C2CCC(C2)C1C(=O)NCc1ccccc1 (configuration not stated)
Ans: 102 % of control

Q: Using the record for CCCCN(CCCC)CC(C)(O)c1cc(-c2ccc(Cl)cc2)nc2c(C)cc(C)cc12 (configuration not stated) , report its T/C.
Ans: 87 % of control

Q: Name the reported T/C value associated with the compound "Cc1cc(C)c(S(=O)(=O)F)cc1C(=O)O"
Ans: 107 % of control

Q: Request the reported T/C associated with "Clc1ccc2c(NCc3ccncc3)ccnc2c1"
Ans: 96 % of control

Q: Give the measured T/C of "Cn1c(-c2ccccc2)cc(=O)cc1-c1ccccc1" .
Ans: 91 % of control

Q: # T/C lookup, item "CCCCCCCc1c(C)c2ccc(OC)cc2[nH]c1=O"
Ans: 95 % of control

Then this compound:
Q: Quick one: T/C of "CC(=O)Oc1cccc(C(C)=O)c1" ?
Ans: 102 % of control

----------
System: CD2F1 mice, L1210 leukemia ip, survival T/C
EXPERIMENT NOTES: NCI In Vivo Anticancer Drug Screen. Data for tumor model L1210 Leukemia (intraperitoneal) in CD2F1 (CDF1) mice
RUN CONDITIONS: endpoint: mean survival time; dose: 75.0 mg/kg/injection; schedule: Q01DX001 (ip); vehicle: saline; higher = longer survival
Inconclusive results and toxic doses are left out.
Parameter: T/C. Scope: all listed entries.

Q: What does the record list as T/C for CC1[N-]C(/C=N/O)NC(C)N1.CC1[N-]C(/C=N/O)NC(C)N1.[Br][Ni+2][Br] (stereo unspecified) ?
Ans: 106 % of control

Q: Would you mind telling me what T/C value was observed for "Cc1ncc(C[P+](c2ccccc2)(c2ccccc2)c2ccccc2)c(C)c1O" ?
Ans: 102 % of control

Q: Report T/C for OC1C=CC(O)C1 (stereo unspecified) please.
Ans: 97 % of control

Q: For "CN(CCO)N=Nc1ccccc1" , what is its reported T/C?
Ans: 102 % of control

Q: // query T/C value for entry "COC(=O)C[As+](c1ccccc1)(c1ccccc1)c1ccccc1"
Ans: 103 % of control

Q: Look up T/C for this molecule: CC(O)(C(=O)O)c1ccccc1 (stereo unspecified)
Ans: 102 % of control

Q: I am curious: what T/C value has been reported for "FC1(F)C(Cl)=[C]([Hg][C]2=C(Cl)C(F)(F)C(F)(F)C(F)(F)C2(F)F)C(F)(F)C(F)(F)C1(F)F" ?
Ans: 106 % of control

Q: Which T/C reading was recorded for the molecule "O=C(Nc1ccccc1[N+](=O)[O-])c1ccc(C(=O)Nc2ccccc2[N+](=O)[O-])cc1" ?
Ans: 87 % of control

More entries:
Q: For "CC(=O)C(CCN(C)C)(c1ccccc1)c1ccccc1" , what is its reported T/C?
Ans: 102 % of control

Q: Which T/C value is on record for CCN1CCC2OCOC2C1 (stereo unspecified) ?
Ans: 102 % of control

Q: Quick check: T/C of "[O]=[Zr]" ?
Ans: 94 % of control

----------
Test system: CD2F1 mice, L1210 leukemia ip, survival T/C
EXPERIMENT NOTES: NCI In Vivo Anticancer Drug Screen. Data for tumor model L1210 Leukemia (intraperitoneal) in CD2F1 (CDF1) mice
RUN CONDITIONS: endpoint: mean survival time; dose: 400.0 mg/kg/injection; schedule: Q01DX001 (ip); vehicle: saline with Tween-80; higher = longer survival
Toxic doses and inconclusive results are not listed.
RECORDED METRIC: T/C

# count of solved cases: 5
Q: Look up T/C for this molecule: "Cn1ccccc1=S"
Ans: 103 % of control

Q: // lookup T/C for "C[N+]1(C)N=C([O-])N(c2cccc3ccccc23)C1=O"
Ans: 98 % of control

Q: Could you tell me which T/C is on file for "Nc1nc(-c2cccc([N+](=O)[O-])c2)c(N=Nc2ccccc2Cl)s1" ?
Ans: 96 % of control

Q: Tell me the measured T/C of CC(C)(SCC(N)C(=O)O)c1ccc(-c2ccccc2)cc1 (configuration not stated) , please.
Ans: 91 % of control

Q: Recorded T/C of CC12CCC3C(CCC(CC(=O)O)C3(C)CC(=O)O)C1CCC2=O (configuration not stated) , please.
Ans: 97 % of control

Next:
Q: Name the recorded T/C for "O=C1/C(=C/c2ccccc2)CCS(=O)(=O)c2ccccc21" .
Ans: 90 % of control

Q: May I ask what T/C has been recorded for "O=[N+]([O-])c1ccc2c(c1[N+](=O)[O-])CCCC2" ?
Ans: 93 % of control

Q: Entry CCCCCCCCCCCCCCCCC1CCC2CCCCC12 (configuration not stated) has what T/C?
Ans: 97 % of control

Q: What value of measured T/C is listed for "COc1cc(C=C(c2ccc(N(C)C)cc2)c2ccc(N(C)C)cc2)c(OC)c2ccccc12" ?
Ans: 90 % of control

Q: Which T/C value is on record for c1ccc2c(c1)CC1Nc3ccccc3C21 (configuration not stated) ?
Ans: 96 % of control

Q: What does the record list as T/C for "CCOC(=O)Cc1cnc(SC)nc1Nc1ccc(C)cc1" ?
Ans: 106 % of control

Q: Entry "COc1cc2c(cc1OCc1ccccc1)NC(=O)C2" : reported T/C = ?
Ans: 86 % of control

----------
Test system: CD2F1 mice, L1210 leukemia ip, survival T/C
EXPERIMENT NOTES: NCI In Vivo Anticancer Drug Screen. Data for tumor model L1210 Leukemia (intraperitoneal) in CD2F1 (CDF1) mice
RUN CONDITIONS: endpoint: mean survival time; dose: 100.0 mg/kg/injection; schedule: Q01DX001 (ip); vehicle: saline with Tween-80; higher = longer survival
Inconclusive results and toxic doses are left out.
RECORDED METRIC: T/C

# annotated cases, reported T/C shown
Q: Could you share which T/C value was measured for OC(CI)C(O)C(O)C(O)CI (stereo unspecified) (tested in a mixture with another compound) ?
Ans: 100 % of control

Q: What T/C value was documented for this compound, "Cc1ccc(-c2csc(/N=C/c3ccccc3O)n2)cc1.Cc1ccc(-c2csc(/N=C/c3ccccc3O)n2)cc1.[Cu]" ?
Ans: 86 % of control

Q: Which T/C value is on record for CC12CCC(=O)C(I)(I)C1=CCCC2=O (stereo unspecified) ?
Ans: 91 % of control

Q: What value of T/C has been recorded for this entry: CC(C)(C)C1CCC(OC(=O)C(=O)O)CC1 (stereo unspecified)
Ans: 100 % of control

Q: Endpoint output: T/C of "Cc1cccc(/C=C2\Cc3ccccc3C2=O)c1" . Value?
Ans: 103 % of control

Q: Would you mind telling me what T/C value was observed for "C(/C=C/c1ccccc1)=Nc1ccc(CCc2ccc(N=C/C=C/c3ccccc3)cc2)cc1" ?
Ans: 103 % of control

Q: # input compound: "O=c1cc(NCCCCc2ccccc2)[nH]c(=O)[nH]1" ; wanted: its T/C
Ans: 94 % of control

Q: Recorded T/C of O=C(c1ccccc1[N+](=O)[O-])C(Br)C(Br)c1ccc(Cl)c(Cl)c1 (stereo unspecified) , please.
Ans: 107 % of control

Q: What T/C value was documented for this compound, CC(C)(C)N1CCC1C(O)c1ccccc1 (stereo unspecified) ?
Ans: 98 % of control

Q: Recorded T/C of "COc1cc(C=C(c2ccc(N(C)C)cc2)c2ccc(N(C)C)cc2)c(OC)c2ccccc12" , please.
Ans: 102 % of control

Further cases:
Q: Fill in the blank: the reported T/C of "COc1ccc(NC(=O)NCCCl)cc1" is ____.
Ans: 90 % of control

Q: Look up T/C: "CS(=O)(=O)Cc1cnc(N)nc1-c1ccccc1"
Ans: 94 % of control

Q: Would you mind telling me what T/C value was observed for "CCCN1C(=O)C=CC1=O" ?
Ans: 91 % of control

Q: Return reported T/C; argument: "CC(=O)Nc1cc(C)c(C)cc1[N+](=O)[O-]"
Ans: 98 % of control

Q: Look at this compound and give its reported T/C. "O=C1Nc2ccc(C(=O)O)c(O)c2C1=O"
Ans: 96 % of control

Q: Which T/C is listed for "C[n+]1c2ccccc2c(Cl)c2ccccc21" ?
Ans: 104 % of control
